These measurements were taken from the supplement of paper PMC11061612.

- Tested on: NUGC-3 (Gastric Carcinoma);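 note: after 72 h of two-drug dosing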
- method_summary: Bliss excess, mean over the matrix (fraction); higher = more synergy
measure: Bliss excess
A bare number is all that is needed in reply.

Completed entries (count: 10):
[
  {
    "molecule": "CN(CCO)CC[C@H](CSc1ccccc1)Nc1ccc(S(=O)(=O)NC(=O)c2ccc(N3CCC([C@@H](O)c4ccccc4-c4ccc(Cl)cc4)CC3)cc2)cc1S(=O)(=O)C(F)(F)F [AZD4320] + C1CN(CCC1(C(=O)N[C@@H](CCO)C2=CC=C(C=C2)Cl)N)C3=NC=NC4=C3C=CN4 [Capivasertib] (first compound max 1 µM, 7x7, partner max 3 µM)",
    "test_result": -0.039
  },
  {
    "molecule": "CN(C)CCCOc1ccc(-c2ccc3ncc4c(c3c2)n(C2CCOCC2)c(=O)n4C)cn1 [AZD0156] + C[C@@H]1COCCN1C2=NC(=NC(=C2)C3(CC3)[S@](=N)(=O)C)C4=C5C=CNC5=NC=C4 [AZD6738] (first compound max 1 µM, 7x7, partner max 10 µM)",
    "test_result": 0.064
  },
  {
    "molecule": "NC1(C(=O)N[C@@H](CCO)c2ccc(Cl)cc2)CCN(c2ncnc3[nH]ccc23)CC1 [Capivasertib] + CC(=O)c1c(C)c2cnc(Nc3ccc(N4CCNCC4)cn3)nc2n(C2CCCC2)c1=O [Palbociclib] (first compound max 10 µM, 7x7, partner max 10 µM)",
    "test_result": 0.0372
  },
  {
    "molecule": "CN(C)CCCOc1ccc(-c2ccc3ncc4c(c3c2)n(C2CCOCC2)c(=O)n4C)cn1 [AZD0156] + O=C(c1cc(Cc2n[nH]c(=O)c3ccccc23)ccc1F)N1CCN(C(=O)C2CC2)CC1 [Olaparib] (first compound max 3 µM, partner max 3 µM)",
    "test_result": 0.0093
  },
  {
    "molecule": "NC1(C(=O)N[C@@H](CCO)c2ccc(Cl)cc2)CCN(c2ncnc3[nH]ccc23)CC1 [Capivasertib] + CC(C)n1c(=O)n(C)c2cnc3cc(F)c(-c4ccc(OCCCN5CCCCC5)nc4)cc3c21 [AZD1390] (first compound max 10 µM, 7x7, partner max 0.3 µM)",
    "test_result": -0.0372
  },
  {
    "molecule": "Cc1cc2ncnn2cc1Nc1ncc2c(n1)n(C1CCOCC1)c(=O)n2C [AZD7648] + CCN(CCO)CCCOc1ccc2c(Nc3cc(CC(=O)Nc4cccc(F)c4)[nH]n3)ncnc2c1 [AZD2811] (first compound max 10 µM, 7x7, partner max 1 µM)",
    "test_result": -0.0046
  },
  {
    "molecule": "CC1(C)CCC(CN2CCN(c3ccc(C(=O)NS(=O)(=O)c4ccc(NCC5CCOCC5)c([N+](=O)[O-])c4)c(Oc4cnc5[nH]ccc5c4)c3)CC2)=C(c2ccc(Cl)cc2)C1 [Venetoclax] + COc1cc(Nc2ncc3c(n2)-c2ccc(Cl)cc2C(c2c(F)cccc2OC)=NC3)ccc1C(=O)O [Alisertib] (first compound max 1 µM, 7x7, partner max 10 µM)",
    "test_result": 0.0325
  },
  {
    "molecule": "NC1(C(=O)N[C@@H](CCO)c2ccc(Cl)cc2)CCN(c2ncnc3[nH]ccc23)CC1 [Capivasertib] + COc1nnc2ccc(N3CCC(c4ccc(OCCN5CCN(C)C(=O)[C@H]5C)cc4)CC3)nn12 [AZD5153] (first compound max 10 µM, 7x7, partner max 1 µM)",
    "test_result": 0.0564
  },
  {
    "molecule": "Cc1cc2ncnn2cc1Nc1ncc2c(n1)n(C1CCOCC1)c(=O)n2C [AZD7648] + O=C(c1cc(Cc2n[nH]c(=O)c3ccccc23)ccc1F)N1CCN(C(=O)C2CC2)CC1 [Olaparib] (first compound max 10 µM, 7x7, partner max 10 µM)",
    "test_result": -0.0175
  },
  {
    "molecule": "COc1cccc(OCCCN)c1-c1cc(Nc2cnc(C#N)cn2)n[nH]1 [Prexasertib] + Cc1cc2ncnn2cc1Nc1ncc2c(n1)n(C1CCOCC1)c(=O)n2C [AZD7648] (first compound max 1 µM, 7x7, partner max 10 µM)",
    "test_result": -0.0129
  }
]

Measured Bliss excess, Cc1c2c(nn1C)CSCc1cc(n(C)n1)CSc1cc(c3ccccc3c1)OCCCc1c(C(=O)O)n(C)c3c-2c(Cl)ccc13 [AZD5991] + C=CCn1c(=O)c2cnc(Nc3ccc(N4CCN(C)CC4)cc3)nc2n1-c1cccc(C(C)(C)O)n1 [AZD1775] (first compound max 1 µM, partner max 1 µM) : -0.0088

Measured Bliss excess, C=CCn1c(=O)c2cnc(Nc3ccc(N4CCN(C)CC4)cc3)nc2n1-c1cccc(C(C)(C)O)n1 [AZD1775] + O=C(c1cc(Cc2n[nH]c(=O)c3ccccc23)ccc1F)N1CCN(C(=O)C2CC2)CC1 [Olaparib] (first compound max 1 µM, partner max 10 µM) : -0.0798

Measured Bliss excess, COc1cccc(OCCCN)c1-c1cc(Nc2cnc(C#N)cn2)n[nH]1 [Prexasertib] + CCc1c2c(nc3ccc(O)cc13)-c1cc3c(c(=O)n1C2)COC(=O)[C@]3(O)CC [SN-38] (first compound max 1 µM, 7x7, partner max 0.3 µM) : 0.0136

Measured Bliss excess, NC1(C(=O)N[C@@H](CCO)c2ccc(Cl)cc2)CCN(c2ncnc3[nH]ccc23)CC1 [Capivasertib] + Cn1cnc2c(F)c(Nc3ccc(Br)cc3Cl)c(C(=O)NOCCO)cc21 [Selumetinib] (first compound max 10 µM, 7x7, partner max 10 µM) : -0.0007
